Target: Hexokinase HKDC1 [W721R] (Homo sapiens, UniProt Q2TB90, W721R)
Sequence (Q2TB90 whole entry W721R): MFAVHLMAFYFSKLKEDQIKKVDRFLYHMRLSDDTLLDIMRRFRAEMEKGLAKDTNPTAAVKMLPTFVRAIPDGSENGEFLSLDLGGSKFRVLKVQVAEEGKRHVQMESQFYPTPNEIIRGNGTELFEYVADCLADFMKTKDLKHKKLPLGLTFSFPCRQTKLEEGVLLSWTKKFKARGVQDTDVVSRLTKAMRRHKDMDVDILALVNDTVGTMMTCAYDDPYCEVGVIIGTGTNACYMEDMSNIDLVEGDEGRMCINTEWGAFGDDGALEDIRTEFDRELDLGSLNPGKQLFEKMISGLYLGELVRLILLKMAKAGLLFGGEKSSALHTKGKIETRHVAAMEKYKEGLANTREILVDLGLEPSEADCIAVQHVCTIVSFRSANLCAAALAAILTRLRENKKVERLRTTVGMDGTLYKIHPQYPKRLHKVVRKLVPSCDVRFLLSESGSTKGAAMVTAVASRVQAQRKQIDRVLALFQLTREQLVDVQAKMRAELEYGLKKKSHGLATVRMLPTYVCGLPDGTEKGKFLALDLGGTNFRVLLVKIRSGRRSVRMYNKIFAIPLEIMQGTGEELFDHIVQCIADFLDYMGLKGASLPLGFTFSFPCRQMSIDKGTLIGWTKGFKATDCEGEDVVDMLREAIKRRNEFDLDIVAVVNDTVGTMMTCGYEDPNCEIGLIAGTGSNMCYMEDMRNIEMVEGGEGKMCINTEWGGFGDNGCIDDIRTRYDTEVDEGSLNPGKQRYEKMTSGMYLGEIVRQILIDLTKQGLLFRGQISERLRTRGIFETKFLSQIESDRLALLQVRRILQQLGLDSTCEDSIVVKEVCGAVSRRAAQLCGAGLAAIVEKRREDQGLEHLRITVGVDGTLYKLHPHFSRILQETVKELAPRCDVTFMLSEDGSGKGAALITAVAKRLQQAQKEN
Assay: activation of HKDC1 glucose phosphorylation – biochemical, W721R variant, dose response (AID 504730)
The reader will find reported pEC50 values listed item by item below.
Please express pEC50 as -log10 of the molar concentration.

Consider the reported pEC50 for these compounds:
{"compound": "CCCOC1=CC(=O)C(C=NNC(=S)Nc2ccccc2[N+](=O)[O-])C=C1 (centres undefined)", "pEC50": 4.58}
{"compound": "Oc1c(Cl)c(N=Cc2cccnc2)c(O)c2ccccc12", "pEC50": 5.03}
{"compound": "O=C1C(=C2C(=O)c3ccccc3C2=O)Nc2ccccc21", "pEC50": 4.61}
{"compound": "CC(C)(C)c1nnc(N=NCc2cc(Br)ccc2O)n(N)c1=O", "pEC50": 4.70}
{"compound": "CC(=O)Oc1cccc2c(O)c3c(c(O)c12)CC=CC3OC(C)=O (centres undefined)", "pEC50": 4.29}

In: # input compound: Cc1[nH]n(-c2ccccc2)c(=O)c1CN=Nc1nncc(-c2ccccc2)n1 ; wanted: its pEC50
Out: 5.17

In: # input compound: CC(N=Nc1nc2ccccc2o1)c1cc2ccccc2cn1 (centres undefined) ; wanted: its pEC50
Out: 5.65

Numbers sourced from BindingDB's records for doi:10.7270/Q2R78CQV.
